assay-procedure: log P by HPLC on reversed-phase column (EEC Directive 79/831 Annex V.A8)
Assay type: physicochemical
assay-context: reversed-phase C18 HPLC column; pH 7.8, aqueous ammonium hydrogencarbonate/acetonitrile; 55° C.; read-out: log P (neutral)
Classify on chromatographic logP using Low = under 3, Mid = from 3 up to 4, High = 4 and over

COC(=O)c1ccc2cccnc2n1 [XXII-1, Methyl 1,8-naphthyridine-2-carboxylate] : Low
CCSc1ccc2nc(-c3nc4cc(C(F)(F)F)ncc4n3C)c(SCC)cc2c1 : High
CCS(=O)(=O)c1cc2ccccc2nc1-c1nc2cc(C(F)(F)F)ncc2n1C : Low

Ask: Lab note: which band did CCS(=O)(=O)c1cc2ccccc2nc1-c1cn2cnc(C(F)(F)F)cc2n1 land in?
Result: Low
